meta.source: PubChem BioAssay (NCATS)

assay: qHTS of pediatric cancer cell lines to identify multiple opportunities for drug repurposing: Primary screen for BT-12 cells (AID 1347101); settings: BT-12 viability, CellTiter-Glo luminescence, 48 h; series mostly up to 57.3 µM; further: nearly all actives have a fitted effect of over 25% in size
Results filed as inconclusive are left out. Calls of active or inactive are those of the source. The call rests on the fitted dose curve; in most records, active means well fitted cell-killing curve with a large enough effect; inconclusive means small, poorly fitted or top-dose-only effect; inactive means flat fitted curve, though single readings scatter.
Please reply with one of these outcomes: active, inactive

Q: Which outcome did this test record for the compound CCC(=O)Nc1ccc(O)cc1 ?
A: inactive

Q: Which outcome did this test record for the compound CCCCc1ncc(/C=C(\Cc2cccs2)C(=O)O)n1Cc1ccc(C(=O)O)cc1 ?
A: inactive

Q: Which outcome did this test record for the compound c1ccc(CN(CC2=NCCN2)c2ccccc2)cc1 ?
A: inactive

Q: Which outcome did this test record for the compound CCN(CC)CCNC(=O)c1c(C)[nH]c(/C=C2\C(=O)Nc3ccc(F)cc32)c1C ?
A: active

Q: Which outcome did this test record for the compound CCCn1cnc2c1c(=O)n(CCCCC(C)=O)c(=O)n2C ?
A: inactive

Q: Which outcome did this test record for the compound CCCCC/C(C=O)=C\c1ccccc1 ?
A: active

Q: Which outcome did this test record for the compound Nc1cc(=O)[nH]c(N)n1 ?
A: inactive

Q: Which outcome did this test record for the compound CN(C)CC[C@@H](c1ccc(Cl)cc1)c1ccccn1 ?
A: inactive

Q: Which outcome did this test record for the compound CN(C)CCOC(C)(c1ccccc1)c1ccccn1 (centres undefined) ?
A: inactive

Q: Which outcome did this test record for the compound COc1ccccc1O ?
A: inactive

Q: Which outcome did this test record for the compound CCC(=O)c1ccc(O)cc1 ?
A: inactive

Q: Which outcome did this test record for the compound O=c1cc[nH]c(=S)[nH]1 ?
A: inactive

Q: Which outcome did this test record for the compound NCC(=O)CCC(=O)O ?
A: inactive

Q: Which outcome did this test record for the compound CCN(CC)CCNC(=O)c1cc(Cl)c(N)cc1OC ?
A: inactive

---

assay: qHTS of pediatric cancer cell lines to identify multiple opportunities for drug repurposing: Primary screen for A673 cells (AID 1347092); conditions: A673 Ewing sarcoma viability, CellTiter-Glo ATP luminescence, 48 h; series mostly up to 46 µM; further: nearly all actives have a fitted effect of over 45% in size
Results filed as inconclusive are left out. Activity calls are given as the source filed them. Calls come from the whole dose curve; as a rule, active = well fitted cell-killing curve with a large enough effect; inconclusive = small, poorly fitted or top-dose-only effect; inactive = no such curve, though single readings can be large or run the other way.
Please reply with one of these outcomes: YES for active, NO for inactive

Q: Which outcome did this test record for the compound CC(CN1c2ccccc2Sc2ccccc21)N(C)C (configuration not stated) ?
A: NO

Q: Which outcome did this test record for the compound OCC(CO)N[C@H]1C[C@](O)(CO)[C@@H](O)[C@H](O)[C@H]1O ?
A: NO

Q: Which outcome did this test record for the compound CC(C)c1c(C(=O)Nc2ccccc2)c(-c2ccccc2)c(-c2ccc(F)cc2)n1CC[C@@H](O)C[C@@H](O)CC(=O)O ?
A: YES

Q: Which outcome did this test record for the compound CC(=O)OCC(=O)[C@@]1(O)CC[C@H]2[C@@H]3CCC4=CC(=O)CC[C@]4(C)[C@H]3C(=O)C[C@@]21C ?
A: NO

Q: Which outcome did this test record for the compound Cn1c(=O)c2c(ncn2CC2OCCO2)n(C)c1=O ?
A: NO

Q: Which outcome did this test record for the compound COc1ccc2cc1Oc1ccc(cc1)C[C@H]1c3c(cc4c(c3Oc3cc5c(cc3OC)CCN(C)[C@@H]5C2)OCO4)CCN1C ?
A: YES

Q: Which outcome did this test record for the compound Cn1cc[nH]c1=S ?
A: NO
